Molecular target: HLA-Cw*0102 on TAP deficient 721.174 cells (human (endogenous in 721.174))
Assay: FACS
assay.endpoint: Kd (nM)

VAPWNSDAL [VAPWNSDAL peptide] : 140
VAPWNSFAL [VAPWNSFAL peptide] : 140
VAPWNSRAL [VAPWNSRAL peptide] : 190
